Measured normalised cell number, listed per entry for reference.
Experiment: EMT-state selective cytotoxicity in co-culture – imaging, PC-3E GFP, TEM4-18 mCherry, primary screen (AID 1345086);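 further: cells exposed to compound for 72 h before imaging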
Settings: PC-3E GFP / TEM4-18 mCherry co-culture, imaging cell counts; measured here: epithelial PC-3E GFP cell survival; at 1 µM
READOUT: normalised cell number

| MOLECULE | READOUT | MEASURED |
| --- | --- | --- |
| Nc1ccc(S(=O)(=O)Nc2ccccn2)cc1 | normalised cell number | 0.99 |
| COCCCC/C(=N\OCCN)c1ccc(C(F)(F)F)cc1 | normalised cell number | 1.1 |
| CS(=O)(=O)c1ccc([C@@H](O)[C@@H](CO)NC(=O)C(Cl)Cl)cc1 | normalised cell number | 1.12 |
| O=C(O)c1ccccc1C(=O)Nc1ccc(S(=O)(=O)Nc2nccs2)cc1 | normalised cell number | 1.18 |
| COc1ccccc1OCC(O)CN1CCN(CC(=O)Nc2c(C)cccc2C)CC1 (stereo not drawn) | normalised cell number | 1.24 |
| Cn1cnc2c1c(=O)[nH]c(=O)n2C | normalised cell number | 0.96 |
| Cc1cc(O)cc(C)c1Cl | normalised cell number | 0.7 |
| COc1ccc(C2C(=O)c3ccccc3C2=O)cc1 | normalised cell number | 1.14 |
| CN1CCC(OC(c2ccccc2)c2ccccc2)CC1 | normalised cell number | 1.05 |
| Cc1cc(NC(=O)C2=C(O)c3ccccc3S(=O)(=O)N2C)no1 | normalised cell number | 0.97 |
| Nc1ccc(S(=O)(=O)Nc2ccnn2-c2ccccc2)cc1 | normalised cell number | 1.05 |
| CC1CCC(NC(=O)N(CCCl)N=O)CC1 (stereo not drawn) | normalised cell number | 1.17 |
| CC(C)(C#N)c1cc(Cn2cncn2)cc(C(C)(C)C#N)c1 | normalised cell number | 0.74 |
